All figures here come from the supplement of paper PMC13207355.

system: E31 (patient-derived glioblastoma stem cells of proneural subtype); assay: phenotypic distance (Euclidean, principal components) from DMSO controls (arbitrary units); higher = stronger morphological change; details: 111.1 nM; exposure time: 72 h;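 further: cell Painting imaging in 384-well plates, CellProfiler features reduced to at least 20 principal components, Euclidean distance versus same-plate DMSO vehicle wells (0.1% v/v), median over six images per well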
Binary call on phenotypic distance: TRUE from 1 upward, FALSE beneath that.

Observe how each entry below is paired with its result.
compound	class
Nc1nc2n[nH]nc2c(=O)[nH]1	TRUE
Cc1ccc2c(c1)C1(CCN(CCc3nc(-c4ccccc4)oc3C)CC1)OC(=O)N2	FALSE
COc1ccc(C(=O)CC(=O)c2ccc(C(C)(C)C)cc2)cc1	FALSE
O=C(Oc1cccc2cccnc12)c1ccccc1	TRUE
Nc1ccc(-c2ccc3ncc4ccc(=O)n(-c5cccc(C(F)(F)F)c5)c4c3c2)cn1	TRUE

Task: State whether the measured phenotypic distance reaches 1, counting equality as reaching it, for Nc1ncn(C2OC(CO)C(O)C2O)c(=O)n1 (stereo unspecified)
Output: FALSE

Task: State whether the measured phenotypic distance reaches 1, counting equality as reaching it, for NCCNc1ccc(NCCN)c2c1C(=O)c1ccncc1C2=O [Pixantrone dimaleate]
Output: TRUE

Task: State whether the measured phenotypic distance reaches 1, counting equality as reaching it, for COc1cc(NS(C)(=O)=O)ccc1Nc1c2ccccc2nc2ccccc12
Output: TRUE

Task: State whether the measured phenotypic distance reaches 1, counting equality as reaching it, for NCc1ccccc1CC(=O)N[C@@H]1C(=O)N2C(C(=O)O)=C(CSc3nnnn3CC(=O)O)CS[C@H]12 [Ceforanide]
Output: FALSE

Task: State whether the measured phenotypic distance reaches 1, counting equality as reaching it, for CCCSc1ccc2[nH]c(NC(=O)OC)nc2c1
Output: TRUE
